# System Tested: full-length beta-Catenin (Uniprot ID P35222) (Homo sapiens (Human)) (UniProt P35222)
# Sequence (P35222 whole entry): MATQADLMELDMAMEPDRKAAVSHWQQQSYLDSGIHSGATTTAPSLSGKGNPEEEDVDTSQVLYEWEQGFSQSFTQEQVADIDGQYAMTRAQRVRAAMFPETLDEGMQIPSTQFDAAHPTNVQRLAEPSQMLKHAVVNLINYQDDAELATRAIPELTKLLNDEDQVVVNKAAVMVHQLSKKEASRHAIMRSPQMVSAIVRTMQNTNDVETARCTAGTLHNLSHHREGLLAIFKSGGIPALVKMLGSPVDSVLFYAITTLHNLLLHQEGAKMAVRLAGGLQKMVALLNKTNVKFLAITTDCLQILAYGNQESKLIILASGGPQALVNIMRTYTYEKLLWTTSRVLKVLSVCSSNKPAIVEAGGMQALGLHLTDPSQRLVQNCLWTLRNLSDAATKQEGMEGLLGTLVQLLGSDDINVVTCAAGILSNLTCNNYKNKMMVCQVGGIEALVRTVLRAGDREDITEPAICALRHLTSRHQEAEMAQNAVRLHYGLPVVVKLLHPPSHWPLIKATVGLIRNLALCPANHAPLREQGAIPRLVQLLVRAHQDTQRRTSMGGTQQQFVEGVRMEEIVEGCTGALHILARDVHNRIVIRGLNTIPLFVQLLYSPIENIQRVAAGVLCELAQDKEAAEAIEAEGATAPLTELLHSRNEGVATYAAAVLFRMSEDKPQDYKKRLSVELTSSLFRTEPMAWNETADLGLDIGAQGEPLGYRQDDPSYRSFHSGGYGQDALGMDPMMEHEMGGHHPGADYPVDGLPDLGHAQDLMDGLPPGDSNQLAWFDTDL
# Assay Procedure: fluorescence polarization competition against 5FAM-TCF4(10-53) on full-length beta-catenin
Starred links: 1 amine or outer side, 2 acyl side, 3 side chain; linkers in the order of their positions; H or OH if unused. Positions of bridges follow the written chain, without caps; N, C: chain ends. Non-standard residues stand in square brackets, D forms with d. Primed or numbered codes have the meaning given here. *: point of attachment. PyrS2″ = (S)-3-amino-1-((pent-4-en-1-yloxy)carbonyl)pyrrolidine-3-carboxylic acid (stapling residue), C=CCCCOC(=O)N1CC[C@@](N[*:1])(C(=O)[*:2])C1; B5(5) = 2,2-bis(4-pentenyl)glycine, 2-amino-2-(pent-4-en-1-yl)hept-6-enoic acid (stitching residue), C=CCCCC(CCCC=C)(N[*:1])C(=O)[*:2]; PyrS2 = (S)-3-amino-1-((pent-4-en-1-yloxy)carbonyl)pyrrolidine-3-carboxylic acid, C=CCCCOC(=O)N1CC[C@@](N[*:1])(C(=O)[*:2])C1; B5(3) = 2,2-bis(4-pentenyl)glycine (stitching residue), C=CCCCC(CCCC=C)(N[*:1])C(=O)[*:2]; Phe(3-CF3) = N[C@@H](Cc1cccc(C(F)(F)F)c1)C(=O)O; Phe(2-Cl) = N[C@@H](Cc1ccccc1Cl)C(=O)O; 1Nal = N[C@@H](Cc1cccc2ccccc12)C(=O)O; Bta = N[C@@H](Cc1csc2ccccc12)C(=O)O; αAllylPro = C=CC[C@@]1(C(=O)O)CCCN1; tBuAla = CC(C)(C)C[C@H](N)C(=O)O; iPr = CC(C)*
Readout Name: IC50 (nM)

Use the examples below as a reference point.
- Ac-[αAllylPro]D[tBuAla][B5(5)]DDAAFK(iPr)[PyrS2][Phe(2-Cl)][Bta]Q-NH2 (staple 1-4, 4-11) [I-1278]: 10
- Ac-[αAllylPro]D[tBuAla][B5(5)]DEAAFK(iPr)[PyrS2][Phe(2-Cl)][Bta]Q-NH2 (staple 1-4, 4-11) [I-1281]: 10
- Ac-[αAllylPro]D[tBuAla][B5(3)]DTAAFT[PyrS2″][Phe(3-CF3)][Bta]S-NH2 (staple 1-4, 4-11) [I-1271]: 682
- Ac-[αAllylPro]D[tBuAla][B5(5)]DDAAFK(iPr)[PyrS2][Phe(2-Cl)][Bta]L-NH2 (staple 1-4, 4-11) [I-1280]: 22
- Ac-[αAllylPro]D[tBuAla][B5(3)]DTAAFT[PyrS2″]F[1Nal]S-NH2 (staple 1-4, 4-11) [I-1272]: 331

(P) Ac-[αAllylPro]D[tBuAla][B5(3)]DTAAFT[PyrS2″][1Nal][Bta]S-NH2 (staple 1-4, 4-11) [I-1269]
(Q) Ac-[αAllylPro]D[tBuAla][B5(5)]DEAAFK(iPr)[PyrS2][Phe(2-Cl)][Bta]L-NH2 (staple 1-4, 4-11) [I-1283]
(R) Ac-[αAllylPro]D[tBuAla][B5(3)]DDK(iPr)AFL[PyrS2″][Phe(2-Cl)][Bta]Q-NH2 (staple 1-4, 4-11) [I-1275]
Please list these in order of increasing IC50. Thank you! Please respond by ranking the labels in the order requested.
R, Q, P
(R: 9 nM, Q: 26 nM, P: 173 nM)
